- test-system: human OX2R (Homo sapiens, UniProt O43614)
- Construct: expressed in transfected cells; host or cells: CHO (Chinese hamster ovary) cells, line CHOOX2R, co-expressing NFAT-luciferase
- Sequence (O43614 whole entry): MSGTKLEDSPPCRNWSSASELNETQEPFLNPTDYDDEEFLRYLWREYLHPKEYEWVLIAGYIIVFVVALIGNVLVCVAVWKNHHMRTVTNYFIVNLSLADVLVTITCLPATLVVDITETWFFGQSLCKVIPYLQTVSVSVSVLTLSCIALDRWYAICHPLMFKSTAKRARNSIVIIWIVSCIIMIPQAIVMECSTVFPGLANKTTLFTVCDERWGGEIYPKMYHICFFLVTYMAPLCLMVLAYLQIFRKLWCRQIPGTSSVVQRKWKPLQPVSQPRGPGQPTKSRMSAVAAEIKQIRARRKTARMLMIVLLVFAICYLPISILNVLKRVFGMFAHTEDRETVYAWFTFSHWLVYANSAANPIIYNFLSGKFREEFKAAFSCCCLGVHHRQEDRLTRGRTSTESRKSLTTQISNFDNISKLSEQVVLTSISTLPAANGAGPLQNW
- protocol-text: Agonist activity against OX2R: intracellular calcium (Fura-2AM, FDSS7000) in CHOOX2R cells
- Type: cell-based
- measurement-context: test compound 10 μM; relative to orexin-A as full agonist (100%)
observation-type: Response (%) OX2R

Worked set:
COc1ccc(-c2cccc(C(=O)N(C)C)c2)cc1S(=O)(=O)Nc1cccc(N2CCCN(c3ccccc3)C2=O)c1 : 101
COc1ccc(-c2cccc(C(=O)N(C)C)c2)cc1S(=O)(=O)Nc1cccc(NC(=O)N(C)c2cccc(N(C)C)c2)c1 : 73
COc1ccc(-c2cccc(C(=O)N(C)C)c2)cc1S(=O)(=O)Nc1cccc(NS(=O)(=O)Nc2cccc(C)c2)c1 : 89

I: COc1ccc(-c2cccc(C(=O)N(C)C)c2)cc1S(=O)(=O)Nc1cccc(NS(C)(=O)=O)c1
II: COc1ccc(-c2cccc(C(=O)N(C)C)c2)cc1S(=O)(=O)Nc1cccc(NCC(=O)NCc2cccc(C)c2)c1
stdin: Select the item with the higher value of Response (%) OX2R from the options I and II listed. Indicate your choice by writing its label.
stdout: II
